- ASSAY: in vitro metabolic stability in pooled mouse liver microsomes
- Assay type: in vitro ADME
VALUE_TYPE: log10 microsomal CLint (log10 of the value in µL/min/mg)
Log scale reminder: microsomal CLint in µL/min/mg, then log10 taken.

Sample answers from the record:
{"columns": ["MOLECULAR_STRING", "VALUE_TYPE", "RESULT_VALUE"],
 "data": [
  ["O=C(Nc1ccccc1Cl)c1cnc2ccc(-c3ccccc3)cn12", "log10 microsomal CLint", 1.41],
  ["O=C(Nc1ccccc1Cl)c1cnc2ccccn12", "log10 microsomal CLint", 2.56],
  ["O=C(Nc1ccccc1Cl)c1cnc2ccc(N3CCCCC3)cn12", "log10 microsomal CLint", 1.85],
  ["O=C(Nc1ccccc1Cl)c1cnn2ccc(N3CCCCC3)cc12", "log10 microsomal CLint", 2.22]
]}

Would you kindly look at the next entry?
**Q:** Returns the measured log10 microsomal CLint for the input molecule. Input: O=C(Nc1ccccc1Cl)c1cnn2ccc(-c3ccccc3)cc12
**A:** 1.71

---

- ASSAY: in vitro metabolic stability in pooled mouse liver microsomes
- Type: in vitro ADME
- REPORTED_CONDITIONS: t1/2, mouse liver microsomes
VALUE_TYPE: half-life (min)
Give bare numbers, in min.

{"columns": ["COMPOUND", "RESULT_VALUE"],
 "data": [
  ["O=C(Nc1ccccc1Cl)c1cnc2ccc(-c3ccccc3)cn12 [Compound 70]", 53],
  ["O=C(Nc1ccccc1Cl)c1cnc2ccccn12 [Compound 69]", 3.8],
  ["O=C(Nc1ccccc1Cl)c1cnc2ccc(C3CCNCC3)cn12.O=C(O)C(=O)O [Compound 32]", 348],
  ["O=C(Nc1ccccc1Cl)c1cnc2ccc(N3CCCCC3)cn12 [Compound 71]", 20],
  ["O=C(Nc1ccccc1Cl)c1cnn2ccc(N3CCCCC3)cc12 [Compound 58]", 8.3]
]}

Now let's try a different one.
**Q:** Consider the compound shown here: O=C(Nc1ccccc1Cl)c1cnn2ccc(-c3ccccc3)cc12 [Compound 54] What is its recorded half-life?
**A:** 27
